Experiment summary: gradient 5% acetonitrile 3 min, to 50% in 2 min, to 85% in 15 min, held 3 min, 100 µL/min
Applied conditions: column: Zorbax Extend-C18 2.1 x 50 mm; eluents: water / acetonitrile, 0.1% formic acid
Readout type: RP-LC retention time (s)

COc1cccc(NC(=O)Cn2c(C(C)C)nc3c(c2=O)CN(Cc2ccccc2)CC3)c1 | 687

A = NC(=O)[C@@H]1C[C@@H](O)CN1C1CCN(C(=O)CC2=CCCCC2)CC1
B = CCn1c(=O)c2ccccc2n(Cc2nc(-c3ccc(Br)cc3)no2)c1=O
Given the listed records, identify the one among A and B with higher RP-LC retention time. Please identify the chosen entry by its label.
B

----------
Experiment summary: gradient 5% acetonitrile 3 min, to 50% in 2 min, to 85% in 15 min, held 3 min, 100 µL/min
Applied conditions: column: Zorbax Extend-C18 2.1 x 50 mm; eluents: water / acetonitrile, 0.1% formic acid
Readout type: RP-LC retention time (s)

Recorded RP-LC retention time, per entry:
COc1cc(NC(=O)c2cn(-c3cc(N(C)C)ncn3)cn2)cc(OC)c1 | 809
COc1ccc(NC(=O)C2CCN(c3cc(N4CCCCC4)ncn3)CC2)c(OC)c1 | 694
COc1ccc(-c2noc(C3CCCN3C(=O)COc3ccc(Cl)cc3)n2)cc1 (stereo not given) | 1030
O=C(c1nc(Cn2nc(-c3ccc(F)cc3)ccc2=O)no1)N1CCCC1 | 900
Cc1ccc(CNC(=O)C2=C3CCCN3c3ccc(F)cc3S2(=O)=O)cc1 | 909
CC1CN=C2C=C(N3CCN(C(=O)NCCc4ccccc4)CC3)N=CN21 (stereo not given) | 620

1 = CC(C)CC(=O)Nc1ccc(-n2cnc(C(=O)N3CCN(C(C)C)CC3)c2)nc1
2 = Cc1ccc(CNC(=O)c2cc3n(n2)CCCN(Cc2cccc(F)c2)C3=O)o1
Hey, which is lower on measured RP-LC retention time, 1 or 2 ? Please identify the chosen entry by its label.
1
(1: 581 s, 2: 853 s)

a = CCN(Cc1ccc(OC)cc1)Cc1cc(=O)n2cccc(C)c2n1
b = Cc1cc(C)c2sc(NC(=O)C3=COCCO3)nc2c1
Hey, which is lower on measured RP-LC retention time, a or b ? Please identify the chosen entry by its label.
a
(a: 618 s, b: 895 s)

----------
Experiment summary: gradient 5% acetonitrile 3 min, to 50% in 2 min, to 85% in 15 min, held 3 min, 100 µL/min
Applied conditions: column: Zorbax Extend-C18 2.1 x 50 mm; eluents: water / acetonitrile, 0.1% formic acid
Readout type: RP-LC retention time (s)

COC(=O)C1=CN(c2cccc(Cl)c2)c2cc(F)ccc2S1(=O)=O | 897
CCS(=O)(=O)N1CC(=O)N(c2cccc(Cl)c2C)C(C)(C(=O)NCc2ccccc2)C1 (stereo not drawn) | 906
COC(=O)c1ccc(-c2nc3cnccn3c2Nc2c(C)cccc2C)cc1 | 914

----------
Experiment summary: gradient 5% acetonitrile 3 min, to 50% in 2 min, to 85% in 15 min, held 3 min, 100 µL/min
Applied conditions: column: Zorbax Extend-C18 2.1 x 50 mm; eluents: water / acetonitrile, 0.1% formic acid
Readout type: RP-LC retention time (s)

Cc1ccc(N2CCC(NC(=O)Nc3ccc4c(c3)OCCO4)C2=O)cc1C (stereo not given) | 798
CC(C)c1ccc(S(=O)(=O)N2CCC3(CC2)NCCN=C3NCc2ccccc2)cc1 | 791
Cc1cc(C(=O)N2CC(F)(F)C[C@H]2c2nc(C3CC3)no2)on1 | 809
Cc1ccc(CNC(=O)C2CCN(S(=O)(=O)c3cc(C(=O)N4CCCC4)n(C)c3)CC2)o1 | 699
CCCCOc1ccc(CNC(=O)CCc2ccc3nc(CC)[nH]c3c2)cc1 | 683
